# TEST TARGET: C-C chemokine receptor type 1 (Homo sapiens, UniProt P32246)
# Sequence (P32246 whole entry): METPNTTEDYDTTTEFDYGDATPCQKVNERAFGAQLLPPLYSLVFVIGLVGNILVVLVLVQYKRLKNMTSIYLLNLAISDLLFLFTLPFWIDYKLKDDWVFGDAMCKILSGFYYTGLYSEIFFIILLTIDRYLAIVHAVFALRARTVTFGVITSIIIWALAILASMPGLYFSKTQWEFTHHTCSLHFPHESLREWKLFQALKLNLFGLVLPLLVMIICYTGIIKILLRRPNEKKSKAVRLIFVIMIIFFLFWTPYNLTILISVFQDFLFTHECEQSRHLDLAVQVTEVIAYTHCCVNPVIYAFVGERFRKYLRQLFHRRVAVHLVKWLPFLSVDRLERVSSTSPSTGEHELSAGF
# PROTOCOL NOTES: Antagonist activity at human CCR1 receptor expressed in THP1 cells assessed as human MIP-1-alpha-stimulated intracellular calcium level by FLIPR assay
# Format: functional, cell-based, THP-1

{"STRUCTURE NOTATION": "O=S(=O)(c1c(Cl)cccc1Cl)N1CCC(N2CCC(O)(c3ccc(Cl)cc3)CC2)CC1", "TEST TARGET": "C-C chemokine receptor type 1 (Homo sapiens, UniProt P32246)", "UNIT ABBREVIATION": "nM", "INEQUALITY SIGN": "=", "IC50": 420}
{"STRUCTURE NOTATION": "O=S(=O)(NCCCN1CCC(O)(c2ccc(Cl)cc2)CC1)c1ccc(F)cc1Cl", "TEST TARGET": "C-C chemokine receptor type 1 (Homo sapiens, UniProt P32246)", "UNIT ABBREVIATION": "nM", "INEQUALITY SIGN": "=", "IC50": 100}
{"STRUCTURE NOTATION": "O=S(=O)(c1ccccc1Cl)N1CCC(N2CCC(O)(c3ccc(F)c(Cl)c3)CC2)CC1", "TEST TARGET": "C-C chemokine receptor type 1 (Homo sapiens, UniProt P32246)", "UNIT ABBREVIATION": "nM", "INEQUALITY SIGN": "=", "IC50": 590}
{"STRUCTURE NOTATION": "O=S(=O)(NCCCN1CCC(O)(c2ccc(Cl)cc2)CC1)c1ccc(-c2ccccc2)cc1", "TEST TARGET": "C-C chemokine receptor type 1 (Homo sapiens, UniProt P32246)", "UNIT ABBREVIATION": "nM", "INEQUALITY SIGN": ">", "IC50": 30000}
{"STRUCTURE NOTATION": "O=S(=O)(c1ccccc1Cl)N1CCC(N2CCC(O)(c3ccc(Cl)c(Cl)c3)CC2)CC1", "TEST TARGET": "C-C chemokine receptor type 1 (Homo sapiens, UniProt P32246)", "UNIT ABBREVIATION": "nM", "INEQUALITY SIGN": "=", "IC50": 180}
{"STRUCTURE NOTATION": "O=S(=O)(NCCCN1CCC(O)(c2ccc(Cl)cc2)CC1)c1ccccc1", "TEST TARGET": "C-C chemokine receptor type 1 (Homo sapiens, UniProt P32246)", "UNIT ABBREVIATION": "nM", "INEQUALITY SIGN": "=", "IC50": 90}
{"STRUCTURE NOTATION": "O=S(=O)(NCCCN1CCC(O)(c2ccc(Cl)cc2)CC1)c1cccs1", "TEST TARGET": "C-C chemokine receptor type 1 (Homo sapiens, UniProt P32246)", "UNIT ABBREVIATION": "nM", "INEQUALITY SIGN": "=", "IC50": 70}
{"STRUCTURE NOTATION": "O=S(=O)(NCCCN1CCC(O)(c2ccc(Cl)cc2)CC1)c1cccc(Cl)c1", "TEST TARGET": "C-C chemokine receptor type 1 (Homo sapiens, UniProt P32246)", "UNIT ABBREVIATION": "nM", "INEQUALITY SIGN": "=", "IC50": 100}
{"STRUCTURE NOTATION": "CSc1ccc(C2(O)CCN(C3CCN(S(=O)(=O)c4ccccc4Cl)CC3)CC2)cc1", "TEST TARGET": "C-C chemokine receptor type 1 (Homo sapiens, UniProt P32246)", "UNIT ABBREVIATION": "nM", "INEQUALITY SIGN": "=", "IC50": 7980}
